- ASSAY OVERVIEW: Cy5 fluorescence interference with SSB-bound oligo, artefact control for HCV NS3 helicase inhibitor project, biochemical, E. coli SSB, selected ChemBridge compounds (AID 720487)
- TEST PARAMETERS: Cy5-dT15/E. coli SSB fluorescence interference; at 100 µM; actives lie on both sides
This is one part of the list.
Each entry falls into one class according to its fluorescence interference ratio; the ranges are small value (below 0.9), mid value (0.9 to below 1), large value (1 or more)

# example entries with known answers
- GIVEN SMILES: "CCN(CC)c1ccc(C=C2C(=O)N(C)C(=O)N(C)C2=O)c(O)c1"
  CLASS NAME: "large value"
- GIVEN SMILES: "CC(C)(C)N1C(=O)NC(=O)C(=Cc2cccs2)C1=O"
  CLASS NAME: "mid value"
- GIVEN SMILES: "O=c1c2c(nc3cc(-c4cccc(F)c4)[nH]n13)CCS2"
  CLASS NAME: "small value"

**Query** Where would "CCOc1ccc(C=C2C(=O)NC(=O)NC2=O)cc1Cl" land among the classes by reported fluorescence interference ratio?
**Result** mid value

Source listed as PubChem BioAssay AID720487.
